measured_target: MuPEP1 (Streptococcus mutans, UniProt Q8DW05)
Sequence (Q8DW05 entry or part of it): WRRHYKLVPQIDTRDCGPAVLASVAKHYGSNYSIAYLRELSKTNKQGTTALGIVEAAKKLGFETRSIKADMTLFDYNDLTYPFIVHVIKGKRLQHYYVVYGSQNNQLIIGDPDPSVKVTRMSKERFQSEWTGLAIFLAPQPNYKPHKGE
measured_quantity: pKi
Just so you know, pKi here is -log10 of the concentration in molar units; reply with that number alone.

IN: Form field: pKi recorded for CCCNC(=O)OCC1CC2CCN1CC2C#Cc1ccccc1 (stereo not shown) [Compound 1] with MuPEP1 (Streptococcus mutans, UniProt Q8DW05) (enter value)
OUT: 4.42

* * *

measured_target: S. oralis PEP (Streptococcus oralis, UniProt A0A1X1IJV1)
Sequence (A0A1X1IJV1 entry or part of it): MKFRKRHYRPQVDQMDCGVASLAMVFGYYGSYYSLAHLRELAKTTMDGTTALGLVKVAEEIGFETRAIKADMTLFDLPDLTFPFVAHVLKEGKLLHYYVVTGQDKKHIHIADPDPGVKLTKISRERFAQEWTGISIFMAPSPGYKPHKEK
measured_quantity: IC50 (µM)
Your answer is read as µM, so omit the unit and give the number.

IN: Quick check: IC50 of CCCNC(=O)OCC1CC2CCN1CC2C#Cc1ccccc1 (stereo not shown) ?
OUT: 25

* * *

measured_target: S. pneumoniae PEP (Streptococcus pneumoniae serotype 4)
Construct: His-tag; made in house; host or cells: E. coli BL21 (DE3) pLysS
Sequence (Q03727 11-138): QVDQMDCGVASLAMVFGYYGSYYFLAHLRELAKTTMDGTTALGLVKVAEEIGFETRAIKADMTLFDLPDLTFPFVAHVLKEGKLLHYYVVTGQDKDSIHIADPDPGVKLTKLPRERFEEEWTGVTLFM
test_name: S. pneumoniae PEP peptidase assay with tCComC-AFC
Assay type: biochemical
Experimental: The PEP activity was assayed in a 110-μL reaction mixture containing 50 mM Tris-HCl, 150 mM ammonium sulfate, 0.02% Triton X-100, and various concentrations of the substrate. The reaction was started by adding the PEP solution to a final concentration of 0.25–2.0 μM. […]
measured_quantity: IC50 (µM)
Your answer is read as µM, so omit the unit and give the number.

IN: Quick check: IC50 of CCCNC(=O)OCC1CC2CCN1CC2C#Cc1ccccc1 (stereo not shown) ?
OUT: 29
